The following sequences are shown together with reported Killing efficiency values.
tested on: T2 cells; assay: LDH release assay of CD8+ T cell killing activity; type: cell-based, human; set-up: concentration or dose not given beside the values; conditions: T cells activated by listed polypeptide + T2 cells loaded with mutant FILDGLYSV; effector:target 1:1; 4 hours
Value Kind: Killing efficiency (%)

Entry Sequence | Unit Name | Endpoint Value
FLLDGLYSV [mutant polypeptide's variant, Leucine at position 2] | % | 8.38
FILDGLYSV [mutant polypeptide from COL21A1, Serine at position 45 mutated into Leucine] | % | 7.33
FILDGLYSL [mutant polypeptide's variant, Leucine at position 9] | % | 8.09
FMLDGLYSV | % | 9.15
FLLDGLYSL [mutant polypeptide's variant, Leucine at positions 2 and 9] | % | 7.05
FMLDGLYSL | % | 8.96

Taken from patent US11213563B2.
